MEASURE_NAME: melting point

Answered examples (3):
{"COMPOUND": "COC1(C)OC(=O)c2c(cc(O)c(C)c2O)C1O (stereo not shown)", "melting point": "174.4 to 174.9 °C"}
{"COMPOUND": "CC=Cc1cc2c(o1)C(=O)C(C)(OC(=O)c1c(C)cc(O)cc1O)C(O)C2 (stereo not shown)", "melting point": "121.1 to 121.6 °C"}
{"COMPOUND": "CCC[C@@]1(O)OC(=O)c2c1cc(O)c(O)c2C [Compound 4, (R)-3-demethylpurpurester A]", "melting point": "201.2 to 201.9 °C"}

Then there is this compound:
QUERY: Given COC1(C)OC(=O)c2c(cc(O)c(C)c2O)C1=O (stereo not shown) , state its recorded melting point.
RESULT: 134.2 to 134.8 °C
